target_entity: UniProt:P0DTD1
measurement_protocol: SARS-CoV-2 protease inhibition assay (SARS2 FRET protease assay)
Assay type: biochemical
assay_conditions: SARS-CoV-2 protease 25 nM, FRET, peptide substrate 1.3 μM, 30 minutes at 30° C., compounds 20 μM to 1.0 nM; read-out: IC50
pIC50: −log10 of the molar value.
Label satisfied when pIC50 is at or above 6; otherwise label not satisfied.

Study these solved cases before continuing.
CC(C)(c1cccc(Cl)c1)C(OC(=O)N[C@@H](CC1CCCCC1)C(=O)N[C@H](C=O)C[C@@H]1CCNC1=O)c1cccc(F)c1 (stereo partly drawn)
satisfied
CC(C)C(OC(=O)N[C@@H](CC1CCCCC1)C(=O)N[C@@H](C[C@@H]1CCNC1=O)C(=O)C(N)=O)c1ccccc1 (stereo partly drawn)
not satisfied
CN(Cc1cccc(Cl)c1)C(=O)N[C@@H](CC1CCCCC1)C(=O)N[C@H](C=O)CCC(=O)N1CCOc2ccccc2C1
not satisfied

*Q* Check if pIC50 >= 6 (inclusive). Item: CC(C)(c1cccc(Cl)c1)C(OC(=O)N[C@@H](CC1CCCCC1)C(=O)N[C@H](C=O)C[C@@H]1CCNC1=O)c1ccc2ccccc2c1 (stereo partly drawn)
*A* satisfied

*Q* Check if pIC50 >= 6 (inclusive). Item: CC(C)C[C@H](NC(=O)OC(Cc1cccc(Cl)c1)c1cccc(Cl)c1)C(=O)N[C@@H](C[C@@H]1CCNC1=O)C(=O)C(=O)NC1CC1 (stereo partly drawn)
*A* satisfied

*Q* Check if pIC50 >= 6 (inclusive). Item: CCOP(=O)(OCC)C(O)C(CC1CC2(CCN(C(C)=O)CC2)NC1=O)NC(=O)C(CC(C)C)NC(=O)OCc1cccc(Cl)c1 (stereo in doubt)
*A* not satisfied

*Q* Check if pIC50 >= 6 (inclusive). Item: CC(C)(C)C(=O)N1CCC2(CC1)CC(CC(NC(=O)[C@H](CC1CCCCC1)NC(=O)OCc1cccc(Cl)c1)C(=O)C(=O)NC1CC1)C(=O)N2 (stereo partly drawn)
*A* not satisfied

*Q* Check if pIC50 >= 6 (inclusive). Item: CC1(C)CC(CC(C=O)NC(=O)[C@H](CC2CCCCC2)NC(=O)OCc2cccc(Cl)c2)C(=O)N1 (stereo partly drawn)
*A* satisfied

*Q* Check if pIC50 >= 6 (inclusive). Item: O=C(N[C@@H](CC1CCCCC1)C(=O)N[C@@H](C[C@H]1CC2(CCCCC2)NC1=O)C(=O)C(=O)NC1CC1)OCc1cccc(Cl)c1
*A* not satisfied

*Q* Check if pIC50 >= 6 (inclusive). Item: CC(C)C[C@H](NC(=O)OC1CCCC1Cc1cccc(Cl)c1)C(=O)N[C@H](C=O)C[C@@H]1CCNC1=O (stereo partly drawn)
*A* satisfied

*Q* Check if pIC50 >= 6 (inclusive). Item: CC(C)(C)C(=O)N1CCC2(CC1)CC(CC(NC(=O)[C@H](CC1CCCCC1)NC(=O)OC1CCCC1Cc1cccc(Cl)c1)C(=O)C(=O)NC1CC1)C(=O)N2 (stereo partly drawn)
*A* not satisfied

*Q* Check if pIC50 >= 6 (inclusive). Item: CC(C)C[C@H](NC(=O)OC(Cc1ccccc1)c1ccccc1)C(=O)N[C@H](C=O)C[C@@H]1CCNC1=O (stereo partly drawn)
*A* satisfied
